target: cytoplasmic kinase domain of human IGF-1R (IGF-1R-GST) (Homo sapiens, UniProt P08069); construct: cytoplasmic kinase domain of human IGF-1R (amino acids 964-1370); GST (glutathione-S-transferase); assay: Insulin-like growth factor-1 receptor (IGF-1R) kinase assay (DELFIA); settings: IGF-1R-GST kinase activity, read-out: IGF1R IC50
Sequence (P08069 964-1367 limits assumed): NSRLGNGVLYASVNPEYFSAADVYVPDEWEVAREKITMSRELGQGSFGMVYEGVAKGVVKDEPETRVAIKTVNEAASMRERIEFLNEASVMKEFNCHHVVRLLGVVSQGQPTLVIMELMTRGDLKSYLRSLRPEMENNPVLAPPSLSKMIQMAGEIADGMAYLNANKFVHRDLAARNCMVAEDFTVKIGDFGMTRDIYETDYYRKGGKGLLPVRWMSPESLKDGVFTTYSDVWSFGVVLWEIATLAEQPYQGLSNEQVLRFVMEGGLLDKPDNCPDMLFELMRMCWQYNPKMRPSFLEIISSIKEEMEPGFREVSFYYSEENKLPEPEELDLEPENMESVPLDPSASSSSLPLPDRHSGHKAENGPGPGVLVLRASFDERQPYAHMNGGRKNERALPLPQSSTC
pIC50: −log10 of the molar value.
quantity.kind: pIC50

In plain terms, "COc1cc(N2CCC(NCC(C)(C)OC)CC2)ccc1Nc1ncc(C(F)(F)F)c(NCc2cccc3c2C(C)(C)C(=O)N3)n1" has a documented pIC50 of 9.34

1: CNC1(C(=O)N2CCC(c3ccc(Nc4ncc(Cl)c(NCc5cccc6c5C(C)(C)C(=O)N6)n4)c(C)c3)CC2)CC1
2: COCCN1CCN(c2ccc(Nc3ncc(C(F)(F)F)c(NCc4cccc5c4CC(=O)N5)n3)c(OC)c2)CC1
3: COc1cc(N2CCN(C(=O)CN(C)C)CC2)ccc1Nc1ncc(C(F)(F)F)c(NCc2cccc3c2C(C)(C)C(=O)N3)n1
4: CCOc1cc(N2CCN(C3CCN(C)CC3)CC2)ccc1Nc1ncc(C(F)(F)F)c(NCc2cccc3c2C(C)(C)C(=O)N3)n1
Exercise: # rank by pIC50, ascending (min first) Output the labels ranked as instructed.
Solution: 2, 1, 4, 3

* * *

Each entry below lists one item and its recorded EC50 value.
test system: TC-71 (Ewing's sarcoma) cells; test: Cell proliferation assay, TC-71 (Alamar Blue); type: cell-based; conditions: 72 h with compound, EC50 ranges as class symbols

In plain terms, CC1(C)C(=O)Nc2cccc(CNc3nc(Nc4ccc(C5CCCN(CC(O)C(F)(F)F)C5)cc4)ncc3Cl)c21 (racemic) has a documented EC50 of 250 to 3000 nM

In plain terms, CNC1(C(=O)N2CCCC(c3ccc(Nc4ncc(Br)c(NCc5cccc6c5C(C)(C)C(=O)N6)n4)c(C)c3)C2)CC1 (racemic) has a documented EC50 of 50 to 250 nM

In plain terms, COc1cc(C2CCCN(CC(C)(C)O)C2)ccc1Nc1ncc(Cl)c(NCc2cccc3c2C(C)(C)C(=O)N3)n1 (racemic) has a documented EC50 of < 50 nM

In plain terms, "COCCN1CCN(c2ccc(Nc3ncc(C(F)(F)F)c(NCc4cccc5c4C(C)(C)C(=O)N5)n3)c(OC)c2)CC1" has a documented EC50 of < 50 nM

In plain terms, "CCc1cc(C2CCN(CC(C)(C)O)CC2)ccc1Nc1ncc(C(F)(F)F)c(NCc2cccc3c2C(C)(C)C(=O)N3)n1" has a documented EC50 of 50 to 250 nM

In plain terms, CCc1cc(C2CCCN(CCOC)C2)ccc1Nc1ncc(Br)c(NCc2cccc3c2C(C)(C)C(=O)N3)n1 (racemic) has a documented EC50 of < 50 nM

In plain terms, "Cc1cc(C2CCN(CC(C)(C)O)CC2)c(C)cc1Nc1ncc(Cl)c(NCc2cccc3c2C(C)(C)C(=O)N3)n1" has a documented EC50 of 250 to 3000 nM

In plain terms, "CCc1cc(C2CCN(CCOC)CC2)ccc1Nc1ncc(Cl)c(NCc2cccc3c2C(C)(C)C(=O)N3)n1" has a documented EC50 of 50 to 250 nM

Others:
In plain terms, COc1cc(C2CCCN(CCO)C2)ccc1Nc1ncc(C(F)(F)F)c(NCc2cccc3c2C(C)(C)C(=O)N3)n1 (racemic) has a documented EC50 of < 50 nM

Values from patent US8546443B2
